- study_target: CBP bromodomain (Homo sapiens)
- Sequence (Q92793 1085-1192 limits assumed): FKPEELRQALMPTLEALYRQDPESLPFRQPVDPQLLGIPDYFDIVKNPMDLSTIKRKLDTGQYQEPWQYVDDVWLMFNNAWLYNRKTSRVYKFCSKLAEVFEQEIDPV
- assay_details: CBP bromodomain binding assay (TR-FRET)
- condition_set: 1 hour incubation at room temperature
measurement_name: EC50

For CBP bromodomain (Homo sapiens), provide EC50 of CC(=O)N1C[C@H](c2nc(Nc3ccncc3)cc(-c3cccnc3)n2)CC[C@@H]1C [Compound 00077] please.
200 to 1000 nM

Form field: EC50 recorded for CC(=O)N1C[C@H](c2nc(Nc3cncc(C)c3)cc(-c3cncc4[nH]ccc34)n2)CC[C@@H]1C [Compound 00075] with CBP bromodomain (Homo sapiens) (enter value)
< 200 nM

Record CC(=O)N1C[C@H](c2nc(Nc3ccccc3)cc(-c3cncc4[nH]ccc34)n2)CC[C@@H]1C [Compound 00063] : what is its EC50 with CBP bromodomain (Homo sapiens)?
< 200 nM

// map CC(=O)N1C[C@H](c2nc(Nc3ccccc3)cc(-c3cncnc3)n2)CC[C@@H]1C [Compound 00062] to recorded EC50 (system: CBP bromodomain (Homo sapiens))
200 to 1000 nM

Reported EC50 for CBP bromodomain (Homo sapiens), given CC(=O)N1C[C@H](c2nc(Nc3cc(F)c4cc[nH]c4c3)cc(-c3cccnc3)n2)CC[C@@H]1C [Compound 00040] ?
< 200 nM

The reported numbers originate from patent US12648947B2.
